Below, each of the molecules is paired with its reported selective drug sensitivity score value.
# Test system: KASUMI-9;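 further: ALL cell lines in 384-well plates, five doses spanning 10,000-fold, each plate scaled between vehicle and 100 µmol/L benzalkonium chloride controls, sDSS an adapted area-under-curve metric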
# ASSAY_METHOD_TEXT: selective drug sensitivity score (sDSS, relative to normal bone marrow) (sDSS (score)); higher = more potent and effective on the cell line relative to normal bone marrow cells
# RUN_PARAMETERS: 72 h

MOLECULE | selective drug sensitivity score
CNC(=O)c1cc(Oc2ccc(NC(=O)Nc3ccc(Cl)c(C(F)(F)F)c3)c(F)c2)ccn1 [Regorafenib] (top concentration 10000 nM) | 2.04
Cc1cn(-c2cc(NC(=O)c3ccc(C)c(Nc4nccc(-c5cccnc5)n4)c3)cc(C(F)(F)F)c2)cn1 [Nilotinib] (top concentration 10000 nM) | 4.6
Cc1cnc(-c2ccccc2C(C)C)nc1NCc1ccc(-n2ccnn2)cc1 [ML323] (top concentration 10000 nM) | 0.04
O=C(NC[C@H](O)CN1CCc2ccccc2C1)c1cc(NC2COC2)ncn1 (top concentration 10000 nM) | -0.06
Nc1nc2[nH]cnc2c(=S)[nH]1 [Thioguanine] (top concentration 10000 nM) | 11.2
CS(=O)(=O)c1ccc(-c2cnc(N)c(C(=O)Nc3ccccc3)n2)cc1 [VE-821] (top concentration 10000 nM) | 0.84
Cn1cc(C2=C(c3cn(C4CCN(Cc5ccccn5)CC4)c4ccccc34)C(=O)NC2=O)c2ccccc21 [Enzastaurin] (top concentration 10000 nM) | 4.36
